# System: OVCAR-4 ovarian
# Test Name: NCI tumour cell line growth inhibition, 48 h
What TGI was measured for each of the following?

**Q:** Any idea what its TGI is? The molecule is COc1cc(/C=C2\C(=O)N(c3ccccc3Cl)C(c3ccccc3)S2(=O)=O)cc(OC)c1OC (stereo not drawn)
**A:** > 100 µM

**Q:** Any idea what its TGI is? The molecule is "CCN(CC)c1c(-c2c(N(CC)CC)c(OC(C)=O)c3sccn3c2=O)c(=O)n2ccsc2c1OC(C)=O"
**A:** > 100 µM

**Q:** Any idea what its TGI is? The molecule is Nc1ncnc2c1ncn2C1OC(CO)C(O)C(O)C1O (stereo not drawn)
**A:** > 100 µM

* * *

# System: PC-3 prostate
# Test Name: NCI tumour cell line growth inhibition, 48 h; in the data active = GI50 below about 0.43 µM; inactive = the rest
A correct response names exactly one class from active, inactive

**Q:** I'd appreciate the recorded outcome for "COc1ccc(/C(=N\O)c2cc(C)c(OC)c(C)c2)cc1O" from this test.
**A:** active

**Q:** I'd appreciate the recorded outcome for "Cc1cc(NCc2cc(Nc3ccnc4cc(Cl)ccc34)ccc2F)nc(N2CCN(C)CC2)n1" from this test.
**A:** inactive

**Q:** I'd appreciate the recorded outcome for CCN1C(=O)N(c2ccccc2)C2NC(=S)N(/N=C/C=C/c3ccccc3)C21 (stereo unspecified) from this test.
**A:** active

**Q:** I'd appreciate the recorded outcome for "Cc1cc(=O)[nH]c2cc3c(c4c(n3Cc3ccc(Cl)cc3Cl)CC(C)(C)CC4=O)c(O)c12" from this test.
**A:** inactive

**Q:** I'd appreciate the recorded outcome for COC(=O)CCC1CCC(c2cc(F)ccc2F)(S(=O)(=O)c2ccc(Cl)cc2)CC1 (stereo unspecified) from this test.
**A:** inactive

**Q:** I'd appreciate the recorded outcome for "O=S(=O)(c1cccc2c(Cl)cccc12)N1CCCNCC1" from this test.
**A:** inactive

**Q:** I'd appreciate the recorded outcome for "COc1cc(/C=C/C(=O)c2c(C)nc3ccccc3c2/C=C/c2ccc(C)cc2)cc(OC)c1OC" from this test.
**A:** inactive

**Q:** I'd appreciate the recorded outcome for "COC(=O)C1=C(C(=O)OC)SC(=C(Cl)C(=S)Nc2ccccc2O)S1" from this test.
**A:** inactive

**Q:** I'd appreciate the recorded outcome for "COc1ccc(-n2cc(-c3cc(OC)c(OC)c(OC)c3)nc2SCc2ccccc2)cc1OC" from this test.
**A:** inactive

**Q:** I'd appreciate the recorded outcome for "O=P(CCCCP(=O)(c1ccccc1)c1ccccc1)(c1ccccc1)c1ccccc1.[Cl][Sn]([Cl])([c]1ccccc1)[c]1ccccc1" from this test.
**A:** inactive

**Q:** I'd appreciate the recorded outcome for "CC[C@@]1(OC(=O)CN)C(=O)OCc2c1cc1n(c2=O)Cc2cc3c(N)cccc3nc2-1" from this test.
**A:** active

* * *

What TGI was measured for each of the following?
# System: DU-145 prostate
# Test Name: NCI tumour cell line growth inhibition, 48 h

**Q:** Any idea what its TGI is? The compound is C[N+]1(Cc2ccc(Cl)c(Cl)c2)CCCC1C1CCCN(Cc2ccc(Cl)c(Cl)c2)C1 (stereo not drawn)
**A:** > 100 µM

**Q:** Any idea what its TGI is? The compound is "Nc1c([N+](=O)[O-])cc2c3c(cccc13)CC2"
**A:** > 100 µM

**Q:** Any idea what its TGI is? The compound is "O=c1oc2cc(N=Cc3ccc4c(c3)OCO4)ccc2c2ccccc12"
**A:** > 100 µM

* * *

What TGI was measured for each of the following?
# System: MDA-MB-435
# Test Name: NCI tumour cell line growth inhibition, 48 h

**Q:** Any idea what its TGI is? The compound is "COc1cc([C@H]2CC(=O)C[C@H](c3cc(OC)c(OC)c(OC)c3)C23C(=O)c2ccccc2C3=O)cc(OC)c1OC"
**A:** > 100 µM

**Q:** Any idea what its TGI is? The compound is "COC(=O)[C@@H](NC(=O)N(CCC#N)CCCN(C(=O)N[C@H](Cc1ccccc1)C(=O)OC)c1ccccc1)C(C)C"
**A:** > 100 µM

**Q:** Any idea what its TGI is? The compound is "COCn1cnc2c(=O)n(-c3ccc(OC)cc3)c(=S)n(-c3ccc(OC)cc3)c21"
**A:** > 100 µM

**Q:** Any idea what its TGI is? The compound is "C/C(=N\NC(=S)N1CCN(C)CC1)c1nc2ncccc2[nH]1"
**A:** > 100 µM

**Q:** Any idea what its TGI is? The compound is "O=C(O)c1cc(-c2ccncc2)nc2ccccc12"
**A:** > 100 µM

**Q:** Any idea what its TGI is? The compound is COC(=O)C(Cc1ccc(Oc2cc(CC(NC(=O)c3ccccc3)C(=O)OC)ccc2OC)cc1)NC(=O)c1ccccc1 (configuration not stated)
**A:** > 63.5 µM

**Q:** Any idea what its TGI is? The compound is "Nc1c([N+](=O)[O-])cc2c3c(cccc13)CC2"
**A:** > 100 µM

**Q:** Any idea what its TGI is? The compound is "COc1ccc(C(=O)/C=C/c2ccc3c(c2)OCO3)c(OCc2ccccc2)c1"
**A:** > 100 µM

**Q:** Any idea what its TGI is? The compound is CC1=NN(C(=O)CC(=O)Nc2ccc(C)cc2)C(=O)C1N=Nc1ccc(S(=O)(=O)c2ccc(N=NC3C(=O)N(C(=O)CC(=O)Nc4ccc(C)cc4)N=C3C)cc2)cc1 (configuration not stated)
**A:** > 100 µM

**Q:** Any idea what its TGI is? The compound is "O=Cc1ccccc1B(O)O"
**A:** > 100 µM

**Q:** Any idea what its TGI is? The compound is "CN(C)CCCNc1c(C#N)[n+]([O-])c2cc(Cl)ccc2[n+]1[O-]"
**A:** > 67.2 µM

**Q:** Any idea what its TGI is? The compound is "O=C(Cc1ccc(Cl)cc1)Nc1ccc2oc(-c3ccccc3)nc2c1"
**A:** > 100 µM

* * *

# System: SK-OV-3 ovarian
# Test Name: NCI tumour cell line growth inhibition, 48 h
What TGI was measured for each of the following?

**Q:** Any idea what its TGI is? The compound is "O=P1(c2ccccc2)C(c2ccccc2)=CC=C1c1ccccc1"
**A:** > 100 µM

**Q:** Any idea what its TGI is? The compound is "C#C[C@]1(O)CC[C@H]2[C@@H]3CCC4=C/C(=N/NC(=O)c5cccc6cc7ccccc7nc56)CC[C@@H]4[C@H]3CC[C@@]21CC"
**A:** > 100 µM

**Q:** Any idea what its TGI is? The compound is "CC1=C(C)C1[N+](=O)[O-]"
**A:** > 100 µM

**Q:** Any idea what its TGI is? The compound is O=C1C2C(c3ccccc3)NC(c3ccccc3)C1C(c1ccccc1)NC2c1ccccc1 (stereo not given)
**A:** > 100 µM

**Q:** Any idea what its TGI is? The compound is "Cc1cc(=O)[nH]c2cc3c(c4c(n3Cc3ccc(Cl)cc3Cl)CC(C)(C)CC4=O)c(O)c12"
**A:** > 100 µM
